Biological target: SMARCA4-HiBiT HeLa cells (protein which is expressed from the SMARCA4 gene) (Homo sapiens, UniProt P51532)
Construct: protein which is expressed from the SMARCA2 and SMARCA4 genes; host or cells: HeLa (SMARCA4-HiBiT engineered line)
Sequence (P51532 whole entry): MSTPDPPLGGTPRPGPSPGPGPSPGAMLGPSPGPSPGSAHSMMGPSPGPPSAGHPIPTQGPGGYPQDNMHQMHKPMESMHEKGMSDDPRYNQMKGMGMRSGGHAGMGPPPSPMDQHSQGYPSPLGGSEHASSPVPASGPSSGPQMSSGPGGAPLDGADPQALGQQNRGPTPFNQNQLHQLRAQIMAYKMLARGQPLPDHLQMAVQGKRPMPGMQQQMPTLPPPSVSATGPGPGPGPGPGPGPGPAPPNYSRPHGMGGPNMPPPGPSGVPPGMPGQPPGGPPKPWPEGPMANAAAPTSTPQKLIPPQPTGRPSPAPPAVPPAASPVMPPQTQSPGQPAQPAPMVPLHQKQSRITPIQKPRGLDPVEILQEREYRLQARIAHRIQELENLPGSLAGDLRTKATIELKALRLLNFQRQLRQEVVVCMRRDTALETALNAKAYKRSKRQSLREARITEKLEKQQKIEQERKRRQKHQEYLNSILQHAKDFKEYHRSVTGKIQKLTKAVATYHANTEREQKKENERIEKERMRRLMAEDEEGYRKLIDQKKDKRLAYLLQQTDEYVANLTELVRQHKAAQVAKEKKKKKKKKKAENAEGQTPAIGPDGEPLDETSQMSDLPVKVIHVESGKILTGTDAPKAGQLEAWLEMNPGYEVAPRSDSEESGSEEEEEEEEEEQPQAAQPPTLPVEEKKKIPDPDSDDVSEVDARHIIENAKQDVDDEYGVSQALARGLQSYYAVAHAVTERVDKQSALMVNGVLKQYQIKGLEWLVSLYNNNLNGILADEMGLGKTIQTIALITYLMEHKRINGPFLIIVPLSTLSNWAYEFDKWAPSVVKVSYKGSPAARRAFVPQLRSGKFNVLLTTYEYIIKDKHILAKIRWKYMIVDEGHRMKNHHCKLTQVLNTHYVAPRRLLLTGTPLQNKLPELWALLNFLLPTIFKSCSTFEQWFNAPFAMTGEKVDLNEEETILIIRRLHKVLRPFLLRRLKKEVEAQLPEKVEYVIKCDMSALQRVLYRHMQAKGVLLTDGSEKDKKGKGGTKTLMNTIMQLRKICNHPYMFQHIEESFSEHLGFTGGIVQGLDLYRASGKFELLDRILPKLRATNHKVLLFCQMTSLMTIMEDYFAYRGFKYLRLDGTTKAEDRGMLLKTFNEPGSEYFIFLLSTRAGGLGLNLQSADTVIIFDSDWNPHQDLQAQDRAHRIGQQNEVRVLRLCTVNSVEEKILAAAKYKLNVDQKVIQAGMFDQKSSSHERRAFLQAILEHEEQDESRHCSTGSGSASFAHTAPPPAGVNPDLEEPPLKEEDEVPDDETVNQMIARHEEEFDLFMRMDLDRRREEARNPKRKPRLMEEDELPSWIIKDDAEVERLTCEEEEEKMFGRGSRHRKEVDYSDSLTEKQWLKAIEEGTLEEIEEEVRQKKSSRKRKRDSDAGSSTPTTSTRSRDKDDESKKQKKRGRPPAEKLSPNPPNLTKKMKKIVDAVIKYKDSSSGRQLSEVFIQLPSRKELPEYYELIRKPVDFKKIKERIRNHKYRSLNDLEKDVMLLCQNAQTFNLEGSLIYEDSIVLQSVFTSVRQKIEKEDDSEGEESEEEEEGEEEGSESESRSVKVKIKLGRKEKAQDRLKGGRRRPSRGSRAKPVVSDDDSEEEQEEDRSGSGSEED
Assay: SMARCA4 degradation assay (HiBiT-fusion HeLa cell line, 24 h, luminescence)
Assay type: cell-based
Conditions: @ 1 μM
Description: SMARCA2 and SMARCA4 Degradation Assay Degradation of protein which is expressed from the SMARCA2 and SMARCA4 genes was monitored using engineered HiBiT-fusion HeLa cell lines from Promega. […] 24-hours post-treatment, protein levels were quantified with the addition of HiBiT lytic buffer, LgBiT protein, and HiBiT substrate, according to manufacturer's specifications. […]
Provide the reported inhibition at 1 µM of each item.

Q: Retrieve inhibition at 1 µM measured for "C[C@@H]1CCN(c2cc(-c3ccccc3O)nnc2N)CCN1c1ccnc(C#CCN2CC3CCC(C2)O3)n1" and print it.
A: 30 to 70%

Q: Given the compound "Nc1nnc(-c2ccccc2O)cc1N1CC2CCC(C1)N2c1ccnc(C#CCNC(=O)c2cccnc2)n1" , write its reported inhibition at 1 µM.
A: 30 to 70%

Q: Using the record for "C[C@H]1CCN(c2cc(-c3ccccc3O)nnc2N)CCN1c1ccnc(C#CCNC(=O)c2cc3ncccn3n2)n1" , state its measured inhibition at 1 µM.
A: > 70%

Q: Look up and state reported inhibition at 1 µM for C[C@@H]1CCN(c2cc(-c3ccccc3O)nnc2N)CCN1c1ccnc(C#CCNC(=O)OC2CC/C=C\CCC2)n1 (some centres unmarked)
A: 30 to 70%

Q: Item "C[C@@H]1CCN(c2cc(-c3ccccc3O)nnc2N)CCN1c1nc(C#CCNC(=O)OC(C)(C)C)ncc1F" : provide inhibition at 1 µM
A: < 30%

Q: Look up and report measured inhibition at 1 µM for this entry: CC(C)(C)OC(=O)NCC#Cc1nccc(N2C3CCC2CN(c2cc(-c4ccccc4O)nnc2N)CC3)n1 (centres unmarked)
A: 30 to 70%

Q: State its inhibition at 1 µM: "Cc1nn2ccn(CC#Cc3nccc(N4CC5CCC(C4)N5c4cc(-c5ccccc5O)nnc4N)n3)c(=O)c2c1C"
A: 30 to 70%

Q: Look up inhibition at 1 µM of "CC(C)(C)OC(=O)NCC#Cc1nccc(NC2CN(c3cc(-c4ccccc4O)nnc3N)C2)n1" and report it.
A: 30 to 70%

Q: Supply reported inhibition at 1 µM belonging to this compound: "Cc1nn2ccn(CC#Cc3nccc(N4CCN(c5cc(-c6ccccc6O)nnc5N)CC[C@H]4C)n3)c(=O)c2c1C"
A: < 30%

Q: Consider the compound "C[C@@H]1CCN(c2cc(-c3ccccc3O)nnc2N)CCN1c1nc(C#CCn2ccnc2)ncc1F" . State its measured inhibition at 1 µM.
A: 30 to 70%

Q: Tell me inhibition at 1 µM reported for "Nc1nnc(-c2ccccc2O)cc1N1C2CC1CN(c1ccnc(C#CCNC(=O)c3cc4ncccn4n3)n1)C2"
A: < 30%

Q: Find the measured inhibition at 1 µM of "C[C@@H]1CCN(c2cc(-c3ccccc3O)nnc2N)CCN1c1ccnc(/C=C/CO)n1" and report it.
A: > 70%

Q: // fetch inhibition at 1 µM given entry Nc1nnc(-c2ccccc2O)cc1N1CCC2C1CCCN2c1ccnc(C#CCNC(=O)c2cc3ncccn3n2)n1 (centres unmarked)
A: < 30%

Q: Please give the documented inhibition at 1 µM of "Nc1nnc(-c2ccccc2O)cc1N1CCN(c2ccnc(C#CCCNC(=O)c3cc4ncccn4n3)n2)CC1"
A: < 30%
